- Test system: M. smegmatis 607 ™ (RB mutant)
- Type: cell-based, Mycobacterium smegmatis
assay_metric: susceptibility of the RB-resistant strain to TB drugs

compound | experimental_result
NC[C@H]1O[C@@H](O[C@H]([C@H]2O[C@@H](n3ccc(=O)[nH]c3=O)[C@H](O)[C@@H]2O)[C@H](NCCCC(=O)NCc2ccc(N3CCC(Oc4ccc(OC(F)(F)F)cc4)CC3)cc2)C(N)=O)[C@H](O)[C@@H]1O [APPB] | susceptible
CCc1cc(C(N)=S)ccn1 [Ethionamide (ETH), Ethionamide] | susceptible
NCC[C@H](O)C(=O)N[C@@H]1C[C@H](N)[C@@H](O[C@H]2O[C@H](CN)[C@@H](O)[C@H](O)[C@H]2O)[C@H](O)[C@H]1O[C@H]1O[C@H](CO)[C@@H](O)[C@H](N)[C@H]1O [Amikacin] | susceptible
